# T/C values compiled below
- System: CD2F1 mice, L1210 leukemia ip, survival T/C
- measurement description: NCI In Vivo Anticancer Drug Screen. Data for tumor model L1210 Leukemia (intraperitoneal) in CD2F1 (CDF1) mice
- condition set: endpoint: mean survival time; dose: 100.0 mg/kg/injection; schedule: Q04DX003 (ip); vehicle: saline; higher = longer survival
Inconclusive results and toxic doses are left out.

Examples with answers:
CC(C)(C)OC(=O)NCCCCC(N)C(=O)OC(C)(C)C (stereo unspecified)
96 % of control
CC(C)NC(=O)C1C=C2c3cccc4c3C(CN4)CC2N(C)C1 (stereo unspecified)
88 % of control
CCN(CC)C(=O)N1CCN(c2ccccc2)CC1
98 % of control
O=C(O)CN(CCO)CCO
100 % of control
COc1ccc(-c2nc(N)nc3c2CN(CCCC(=O)O)C3=O)cc1
98 % of control

Req: Give the measured T/C for "O=[N+]([O-])c1cc(Br)ccc1P(=O)(O)O"
Resp: 96 % of control

* * *

- Tested on: CD2F1 mice, L1210 leukemia ip, survival T/C
- measurement description: NCI In Vivo Anticancer Drug Screen. Data for tumor model L1210 Leukemia (intraperitoneal) in CD2F1 (CDF1) mice
- condition set: endpoint: mean survival time; dose: 400.0 mg/kg/injection; schedule: Q04DX002 (ip); vehicle: saline with Tween-80; higher = longer survival
Toxic doses and inconclusive results are not listed.
We begin with a simple list: items and their reported T/C.

Consider the following illustrative entries.
COc1cc2c(cc1OC)C(c1cc(OC)c(OC)c(OC)c1)=NCC2
100 % of control
O=C1c2ccccc2C(O)(c2[nH]nc3ccccc23)N1c1ccccc1 (centres undefined)
106 % of control
NC(=S)S
102 % of control

Here's the next entry for you.
Req: Look up and report measured T/C for this entry: "O=C=N/C=C/NC(=O)Nc1cccc(Cl)c1"
Resp: 101 % of control

* * *

- Tested on: CD2F1 mice, L1210 leukemia ip, survival T/C
- measurement description: NCI In Vivo Anticancer Drug Screen. Data for tumor model L1210 Leukemia (intraperitoneal) in CD2F1 (CDF1) mice
- condition set: endpoint: mean survival time; dose: 100.0 mg/kg/injection; schedule: Q01DX001 (ip); vehicle: saline; higher = longer survival
Inconclusive results and toxic doses are left out.
recorded endpoint: T/C

Please review the following examples before continuing.
COC1=C(OC)C(=O)C(C/C=C(\C)CC/C=C(\C)CC/C=C(\C)CC/C=C(\C)CC/C=C(\C)CC/C=C(\C)CC/C=C(\C)CC/C=C(\C)CC/C=C(\C)CCC=C(C)C)=C(C)C1=O
96 % of control
CCC[CH2][Sn]1([CH2]CCC)[O]C(=O)C2CC=CCC2C(=O)[O]1 (centres undefined)
102 % of control
CC(C)(C)C(NO)C(O)N1CCCCC1 (centres undefined)
97 % of control

Req: Look up and report measured T/C for this entry: CSc1nccc2c1ncn2C1OC(CO)C(O)C1O (centres undefined)
Resp: 98 % of control

* * *

Reported T/C is given for each of the following molecules.
- System: CD2F1 mice, L1210 leukemia ip, survival T/C
- measurement description: NCI In Vivo Anticancer Drug Screen. Data for tumor model L1210 Leukemia (intraperitoneal) in CD2F1 (CDF1) mice
- condition set: endpoint: mean survival time; dose: 50.0 mg/kg/injection; schedule: Q01DX009 (ip); vehicle: saline with Tween-80; higher = longer survival
Toxic doses and inconclusive results are not listed.

// worked examples, T/C included
Clc1ccc(N2CSCSC2)cc1
95 % of control
CCc1c(C)[nH]c2ccc([N+](=O)[O-])cc12
103 % of control

Req: Quote T/C reported for "OCc1ccc[n+](CCc2c[nH]c3ccccc23)c1" please.
Resp: 104 % of control

Req: Look up and state reported T/C for "COC1=CC2c3ccccc3C1C1C(OC)=CC2c2ccccc21"
Resp: 98 % of control

Req: Supply T/C value. Item: "Nc1nc(OCc2ccccc2)ncc1C(=O)NCC(=O)O"
Resp: 104 % of control

Req: Let me know recorded T/C for "CN(C)CCSCC(=O)N1c2ccccc2Sc2ccc(Cl)cc21" , thanks.
Resp: 103 % of control

Req: // Input: "Cc1c(N)ccc(O)c1C" . Output its T/C only.
Resp: 92 % of control

* * *

- Tested on: CD2F1 mice, L1210 leukemia ip, survival T/C
- measurement description: NCI In Vivo Anticancer Drug Screen. Data for tumor model L1210 Leukemia (intraperitoneal) in CD2F1 (CDF1) mice
- condition set: endpoint: mean survival time; dose: 200.0 mg/kg/injection; schedule: Q04DX002 (ip); vehicle: saline with Tween-80; higher = longer survival
Toxic doses and inconclusive results are not listed.
recorded endpoint: T/C

Use these answered entries as a reference point.
CC1Cc2c([nH]c3ccc(Cl)cc23)CN1 (configuration not stated)
89 % of control
CCCC(=O)/C=C\c1ccccc1
91 % of control
CC1=C2C3OC(=O)C(C)C3CCC2(C)C=CC1=O (configuration not stated)
116 % of control
O=C(OCc1ccccc1)C1CC1
102 % of control
COc1ccc(OC)c(/C=C(/C#N)C(N)=O)c1
93 % of control

Req: Report T/C, nothing else, for this compound: "O=C([O][Sb]([O]C(=O)C(F)(F)F)([c]1ccccc1)([c]1ccccc1)[c]1ccccc1)C(F)(F)F"
Resp: 97 % of control

Req: Name the recorded T/C of the compound listed here: "NC(=O)COc1ccc(Br)cc1"
Resp: 98 % of control
